# System: KATO III stomach cancer cell line
# assay.details: In vitro cytotoxicity against KATO-III human tumor cell line.
# Type: functional, cell-based
recorded.endpoint: pIC50
Keep in mind that pIC50 stands for -log10 of concentration in molar terms.

Please review the entries below; each comes with its answer.
>  <compound>
CCOCOCC1(O)C(=O)OCc2c1cc1n(c2=O)Cc2cc3ccccc3nc2-1 (stereo not given)

>  <endpoint.result>
4.39

$$$$
>  <compound>
O=C(Nc1ccccc1)OCCC1(O)C(=O)OCc2c1cc1n(c2=O)Cc2cc3ccccc3nc2-1 (stereo not given)

>  <endpoint.result>
5.27

$$$$
>  <compound>
O=C(Nc1ccccc1)OCC1(O)C(=O)OCc2c1cc1n(c2=O)Cc2cc3ccccc3nc2-1 (stereo not given)

>  <endpoint.result>
4.88

$$$$

Need pIC50 of COCOCC1(O)C(=O)OCc2c1cc1n(c2=O)Cc2cc3ccccc3nc2-1 (stereo not given) , thanks. 4.63

Need pIC50 of O=C1OCc2c(cc3n(c2=O)Cc2cc4ccccc4nc2-3)C1(O)CO (stereo not given) , thanks. 4.94

Need pIC50 of COCCOCOCC1(O)C(=O)OCc2c1cc1n(c2=O)Cc2cc3ccccc3nc2-1 (stereo not given) , thanks. 4.08

Need pIC50 of O=C1OCc2c(cc3n(c2=O)Cc2cc4ccccc4nc2-3)C1(O)CCO (stereo not given) , thanks. 5.01

Need pIC50 of CC(C)NC(=O)OCCC1(O)C(=O)OCc2c1cc1n(c2=O)Cc2cc3ccccc3nc2-1 (stereo not given) , thanks. 4.33

Need pIC50 of COCC(=O)OCCC1(O)C(=O)OCc2c1cc1n(c2=O)Cc2cc3ccccc3nc2-1 (stereo not given) , thanks. 5.52

Need pIC50 of COCCOCOCCC1(O)C(=O)OCc2c1cc1n(c2=O)Cc2cc3ccccc3nc2-1 (stereo not given) , thanks. 4.28
